- Target under test: OTR (Homo sapiens)
- Sequence (P30559 whole entry, species assumed): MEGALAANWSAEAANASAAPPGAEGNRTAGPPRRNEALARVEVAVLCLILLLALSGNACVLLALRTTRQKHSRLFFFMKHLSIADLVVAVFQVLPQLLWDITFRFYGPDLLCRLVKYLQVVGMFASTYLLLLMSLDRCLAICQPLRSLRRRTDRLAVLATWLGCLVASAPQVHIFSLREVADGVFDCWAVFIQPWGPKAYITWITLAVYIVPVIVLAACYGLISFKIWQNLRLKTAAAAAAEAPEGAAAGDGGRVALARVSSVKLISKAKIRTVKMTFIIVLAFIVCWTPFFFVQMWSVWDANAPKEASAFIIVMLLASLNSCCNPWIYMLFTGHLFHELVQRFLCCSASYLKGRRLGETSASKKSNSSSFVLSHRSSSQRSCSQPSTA
- Test: Ca2+ mobilization in cells stably expressing OTR (FLIPR, antagonist mode)
- Test parameters: OTR/HEK293 stably transfected cell line
- Protocol: Test Example 1. Determination of the Effect of the Compound of the Present Disclosure on Ca^2+ Mobilization in Cells Stably Expressing OTR […] For the agonist reference compound plate: the FLIPR instrument software was run, 10 μL of the pre-determined concentration of agonist reference compound was added to the cell plate following the preset protocol, and the fluorescence signal was read. […]
pIC50: −log10 of the molar value.
Observation type: pIC50

>>> val("CO/N=C1/C[C@@H](CO)N(C(=O)c2ccc(-c3cccc(C#N)c3C)c(N3CCOCC3)n2)C1")
6.01
>>> val("CO/N=C1\\C[C@@H](CO)N(C(=O)c2ccc(-c3cccc(C#N)c3C)cc2OC)C1")
7.24
>>> val("CO/N=C1/C[C@@H](CO)N(C(=O)c2ccc(-c3cccc(C)c3C)c(C(=O)N3CCOCC3)c2)C1")
5.82

###

- Target under test: OTR (Homo sapiens)
- Test: Ca2+ mobilization in cells stably expressing OTR (FLIPR, antagonist mode)
- Test parameters: OTR/HEK293 stably transfected cell line
Consider the cut-off 80 nM. If the recorded IC50 is strictly smaller, the label is met; if not, the label is not met.

>>> qualitative_label("CO/N=C1/C[C@@H](CO)N(C(=O)c2ccc(-c3cccc(C#N)c3C)c3c2OCC(=O)N3C)C1 [Example A0163]")
"not met"
>>> qualitative_label("CO/N=C1/C[C@@H](CO)N(C(=O)c2ccc(-c3cccc(C#N)c3C)cc2C)C1 [Example A0241]")
"met"
>>> qualitative_label("CO/N=C1\\C[C@@H](CNC(=O)OC)N(C(=O)c2ccc(-c3ccccc3C)cc2)C1 [Example C0004]")
"not met"
>>> qualitative_label("CO/N=C1/C[C@@H](CO)N(C(=O)c2cnc(-c3ccccc3C)s2)C1 [Example C0030]")
"not met"
>>> qualitative_label("CO/N=C1/C[C@@H](CO)N(C(=O)c2ccc(-c3cccc(C#N)c3C)cc2OC)C1 [Example A0243]")
"met"
>>> qualitative_label("CO/N=C1/C[C@@H](CO)N(C(=O)c2ccc(-c3cccc(C)c3C)c(OC)n2)C1 [Example C0073]")
"met"
>>> qualitative_label("CO/N=C1\\C[C@@H](C(C)(C)O)N(C(=O)c2ccc(-c3cccc(C#N)c3C)cc2)C1 [Example C0163]")
"met"
>>> qualitative_label("CO/N=C1/C[C@@H](CO)N(C(=O)c2ccc(-c3cccc(C#N)c3C(F)F)cc2)C1 [Example A0204]")
"not met"
